target: CSF1R (Homo sapiens, UniProt P07333); experiment: HEK293 CSF1R phosphorylation MSD assay; format: cell-based; design: expressed in transfected cells; host or cells: HEK293; conditions: HEK293 cells, M-CSF stimulated CSF1R phosphorylation, MSD; read-out: HEK293 pCSF1R M-CSF MSD:IC50
Sequence (P07333 20-972): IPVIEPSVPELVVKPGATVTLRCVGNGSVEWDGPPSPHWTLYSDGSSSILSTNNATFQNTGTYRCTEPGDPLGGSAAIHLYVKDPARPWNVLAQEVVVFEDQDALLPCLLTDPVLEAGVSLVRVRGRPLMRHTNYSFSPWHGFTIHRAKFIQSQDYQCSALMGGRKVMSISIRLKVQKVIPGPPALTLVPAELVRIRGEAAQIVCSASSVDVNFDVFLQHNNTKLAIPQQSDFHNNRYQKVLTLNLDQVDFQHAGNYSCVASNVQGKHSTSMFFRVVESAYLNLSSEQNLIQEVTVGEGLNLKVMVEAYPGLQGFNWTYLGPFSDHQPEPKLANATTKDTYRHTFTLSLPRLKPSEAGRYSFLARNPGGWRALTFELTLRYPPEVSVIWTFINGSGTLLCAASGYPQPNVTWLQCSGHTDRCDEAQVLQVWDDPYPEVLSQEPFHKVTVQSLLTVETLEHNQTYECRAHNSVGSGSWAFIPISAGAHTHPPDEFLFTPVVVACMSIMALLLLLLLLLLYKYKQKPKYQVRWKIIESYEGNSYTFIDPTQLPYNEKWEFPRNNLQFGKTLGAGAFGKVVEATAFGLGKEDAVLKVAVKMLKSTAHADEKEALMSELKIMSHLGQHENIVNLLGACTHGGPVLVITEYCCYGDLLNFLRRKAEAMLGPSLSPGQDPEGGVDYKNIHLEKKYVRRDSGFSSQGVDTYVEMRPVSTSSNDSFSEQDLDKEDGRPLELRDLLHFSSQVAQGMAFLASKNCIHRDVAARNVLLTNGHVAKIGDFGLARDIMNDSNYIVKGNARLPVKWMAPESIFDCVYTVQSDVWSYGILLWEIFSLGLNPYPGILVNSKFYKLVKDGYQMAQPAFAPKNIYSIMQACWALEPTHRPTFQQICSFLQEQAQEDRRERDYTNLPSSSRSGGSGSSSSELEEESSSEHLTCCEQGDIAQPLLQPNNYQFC
pIC50: −log10 of the molar value.

>  <chemical.string>
OC1CCN(c2ccn3c(Cc4ccc5nc(N[C@@H]6CCCC[C@H]6O)sc5c4)cnc3c2)CC1

>  <pIC50>
6.30 to 6.70

$$$$
>  <chemical.string>
C=Cc1ccn2c(Cc3ccc4nc(N[C@@H]5CCCC[C@H]5O)sc4c3)cnc2c1

>  <pIC50>
6.70 to 7.30

$$$$
>  <chemical.string>
OCc1ccc2ncc(Cc3ccc4nc(N[C@@H]5CCCC[C@H]5O)sc4c3)n2n1

>  <pIC50>
6.70 to 7.30

$$$$
>  <chemical.string>
COc1ccccc1Nc1nc2ccc(Cn3cnc4cc(F)cnc43)cc2s1

>  <pIC50>
< 6.30

$$$$
>  <chemical.string>
Cn1nnc(-c2ccc3c(c2)ncn3Cc2ccc3nc(N[C@@H]4CCC[C@@H](O)[C@H]4O)sc3c2)n1

>  <pIC50>
6.70 to 7.30

$$$$
>  <chemical.string>
Fc1cnc2c(c1)ncn2Cc1ccc2nc(Nc3ccccc3)sc2c1

>  <pIC50>
< 6.30

$$$$
>  <chemical.string>
COc1ccc2ncn(Cc3ccc4nc(N[C@@H]5CCCC[C@H]5O)oc4c3)c2c1

>  <pIC50>
≥ 7.30

$$$$
>  <chemical.string>
O[C@@H]1CCCC[C@H]1Nc1nc2ccc(Cn3cnc4cc(-n5ccnc5)ccc43)cc2s1

>  <pIC50>
≥ 7.30

$$$$

---

Catalogue of Kd readings, one per entry.
biological target: KIT (Homo sapiens, UniProt P10721); construct: made in house; test: Competition binding assay, KIT Kd
Sequence (P10721 26-976): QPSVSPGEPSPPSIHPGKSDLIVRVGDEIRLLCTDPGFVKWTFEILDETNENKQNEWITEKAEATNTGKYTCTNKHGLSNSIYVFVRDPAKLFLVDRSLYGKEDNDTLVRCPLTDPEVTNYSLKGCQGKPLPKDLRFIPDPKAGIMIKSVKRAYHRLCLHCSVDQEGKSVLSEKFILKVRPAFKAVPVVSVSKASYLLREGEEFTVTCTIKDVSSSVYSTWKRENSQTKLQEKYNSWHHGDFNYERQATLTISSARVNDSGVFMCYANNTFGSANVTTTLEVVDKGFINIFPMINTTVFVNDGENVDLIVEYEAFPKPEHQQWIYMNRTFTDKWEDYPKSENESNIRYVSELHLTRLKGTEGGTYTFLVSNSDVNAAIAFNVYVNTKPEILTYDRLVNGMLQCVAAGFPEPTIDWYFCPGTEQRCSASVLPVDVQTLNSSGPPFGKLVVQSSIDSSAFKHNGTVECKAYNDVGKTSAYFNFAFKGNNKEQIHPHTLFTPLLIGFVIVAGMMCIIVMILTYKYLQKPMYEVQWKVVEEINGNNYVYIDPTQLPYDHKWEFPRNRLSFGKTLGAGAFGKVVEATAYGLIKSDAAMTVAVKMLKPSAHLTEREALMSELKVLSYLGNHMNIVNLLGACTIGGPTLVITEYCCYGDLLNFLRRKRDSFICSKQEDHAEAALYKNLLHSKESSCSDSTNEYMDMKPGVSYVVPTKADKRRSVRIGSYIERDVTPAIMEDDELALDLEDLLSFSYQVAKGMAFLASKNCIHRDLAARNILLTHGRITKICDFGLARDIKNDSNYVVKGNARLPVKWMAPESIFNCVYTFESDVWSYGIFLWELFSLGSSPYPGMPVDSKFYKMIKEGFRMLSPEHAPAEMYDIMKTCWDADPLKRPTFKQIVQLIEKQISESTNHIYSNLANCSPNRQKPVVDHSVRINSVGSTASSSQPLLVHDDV
outcome.measure: Kd

>  <chemical.string>
COC(=O)c1cnc2c(c1)ncn2Cc1ccc2nc(N[C@@H]3CCCC[C@H]3O)sc2c1

>  <endpoint.result>
≤ 100 nM

$$$$
>  <chemical.string>
O[C@@H]1CCCC[C@H]1Nc1nc2ccc(Cn3cnc4cc(Cl)cnc43)cc2s1

>  <endpoint.result>
≤ 100 nM

$$$$
>  <chemical.string>
CNC(=O)c1cnc2c(c1)ncn2Cc1ccc2nc(N[C@@H]3CCCC[C@H]3O)sc2c1

>  <endpoint.result>
≤ 100 nM

$$$$
>  <chemical.string>
COc1cc2ncn(Cc3ccc4nc(NC5CCCCC5)sc4c3)c2cc1OC

>  <endpoint.result>
≤ 100 nM

$$$$
>  <chemical.string>
COc1ccc2ncn(Cc3ccc4nc(N[C@@H]5CCCC[C@H]5O)sc4c3)c2c1

>  <endpoint.result>
≤ 100 nM

$$$$
>  <chemical.string>
CCc1cnc2c(c1)ncn2Cc1ccc2nc(N[C@@H]3CCCC[C@H]3O)sc2c1

>  <endpoint.result>
≤ 100 nM

$$$$
>  <chemical.string>
O[C@@H]1CCCC[C@H]1Nc1nc2ccc(Cc3cnc4ccccn34)cc2s1

>  <endpoint.result>
500 to 2000 nM

$$$$
>  <chemical.string>
COc1ccn2c(Cc3ccc4nc(N[C@@H]5CCCC[C@H]5O)sc4c3)cnc2c1

>  <endpoint.result>
500 to 2000 nM

$$$$

---

target: PDGFRβ (Homo sapiens, UniProt P09619); construct: made in house; assay: Competition binding assay, PDGFRβ Kd; conditions: competition binding
Sequence (P09619 33-1106): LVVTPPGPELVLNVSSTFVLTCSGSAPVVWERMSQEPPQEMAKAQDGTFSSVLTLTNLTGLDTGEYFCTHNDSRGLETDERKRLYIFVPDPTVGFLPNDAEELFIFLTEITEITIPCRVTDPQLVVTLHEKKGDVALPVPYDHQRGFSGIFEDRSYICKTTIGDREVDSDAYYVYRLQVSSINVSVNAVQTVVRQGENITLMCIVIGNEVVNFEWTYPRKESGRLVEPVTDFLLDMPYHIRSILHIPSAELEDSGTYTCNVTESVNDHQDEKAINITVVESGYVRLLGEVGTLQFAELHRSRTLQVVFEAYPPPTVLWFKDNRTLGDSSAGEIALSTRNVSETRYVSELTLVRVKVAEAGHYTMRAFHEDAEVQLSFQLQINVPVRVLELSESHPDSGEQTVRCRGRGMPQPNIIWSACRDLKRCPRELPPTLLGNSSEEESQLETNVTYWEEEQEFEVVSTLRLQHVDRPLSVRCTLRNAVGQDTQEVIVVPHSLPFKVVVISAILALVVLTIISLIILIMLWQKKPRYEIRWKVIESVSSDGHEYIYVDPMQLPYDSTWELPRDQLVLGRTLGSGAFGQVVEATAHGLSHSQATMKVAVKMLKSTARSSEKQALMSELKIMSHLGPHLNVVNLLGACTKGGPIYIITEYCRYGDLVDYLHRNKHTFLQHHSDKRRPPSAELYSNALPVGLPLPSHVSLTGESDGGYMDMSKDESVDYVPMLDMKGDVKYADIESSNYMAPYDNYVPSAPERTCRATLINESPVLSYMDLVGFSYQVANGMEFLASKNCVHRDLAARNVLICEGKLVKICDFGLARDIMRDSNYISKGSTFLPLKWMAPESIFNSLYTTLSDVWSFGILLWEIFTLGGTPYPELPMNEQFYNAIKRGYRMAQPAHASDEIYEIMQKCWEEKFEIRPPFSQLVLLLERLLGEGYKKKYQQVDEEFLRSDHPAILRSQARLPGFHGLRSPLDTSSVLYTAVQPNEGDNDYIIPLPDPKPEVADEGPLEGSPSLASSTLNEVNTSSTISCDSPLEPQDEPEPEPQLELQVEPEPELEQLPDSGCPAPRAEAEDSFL
Catalogue of Kd readings, one per entry.

>  <compound>
OC[C@H]1CCC[C@@H](Nc2nc3ccc(Cn4cnc5cc(F)cnc54)cc3s2)C1 [Example 194]

>  <Kd>
≤ 50 nM

$$$$
>  <compound>
CC(=NO)c1ccn2c(Cc3ccc4nc(N[C@@H]5CCCC[C@H]5O)sc4c3)cnc2c1 [Example 202]

>  <Kd>
50 to 500 nM

$$$$
>  <compound>
CC(C)(O)c1cnc2c(c1)ncn2Cc1ccc2nc(N[C@@H]3CCCC[C@H]3O)sc2c1 [Example 109]

>  <Kd>
50 to 500 nM

$$$$
>  <compound>
CS(=O)(=O)c1ccc2c(c1)ncn2Cc1ccc2nc(N[C@@H]3CCCC[C@H]3O)sc2c1 [Example 112]

>  <Kd>
500 to 2000 nM

$$$$
>  <compound>
O[C@@H]1CCCC[C@H]1Nc1nc2ccc(Cc3cnc4ccc(Br)nn34)cc2s1 [Example 177]

>  <Kd>
≤ 50 nM

$$$$
>  <compound>
Fc1cnc2c(c1)ncn2Cc1ccc2nc(N[C@@H]3CCCC[C@@H]3Cl)sc2c1 [Example 219]

>  <Kd>
≤ 50 nM

$$$$
>  <compound>
O[C@H]1CC[C@H](Nc2nc3ccc(Cn4cnc5cc(F)cnc54)cc3s2)CC1 [Example 163]

>  <Kd>
50 to 500 nM

$$$$
>  <compound>
N#Cc1cc(F)c2c(c1)ncn2Cc1ccc2nc(N[C@@H]3CCCC[C@H]3O)sc2c1 [Example 206]

>  <Kd>
50 to 500 nM

$$$$

---

Target: PDGFRβ (Homo sapiens, UniProt P09619)
Construct: made in house
Assay: Competition binding assay, PDGFRβ Kd
Settings: competition binding
Experimental: Competition binding assays used herein were developed, validated and performed as described in Fabian et al., Nature Biotechnology 2005, 23, 329-336. […] Kds were determined using an eleven point threefold serial dilutions. […] The kinase concentration in the eluates was measured by quantitative PCR.
Catalogue of Kd readings, one per entry.

>  <chemical.string>
CN1CCN(c2ccc3ncc(Cc4ccc5nc(N[C@@H]6CCCC[C@H]6O)sc5c4)n3n2)CC1

>  <Kd>
0.5 to 2 µM

$$$$
>  <chemical.string>
O[C@@H]1CCCC[C@H]1Nc1nc2ccc(Cc3cnc4cccnn34)cc2o1

>  <Kd>
≤ 0.05 µM

$$$$
>  <chemical.string>
O[C@@H]1CCCC[C@H]1Nc1nc2ccc(Cn3cnc4cc(Br)cc(F)c43)cc2s1

>  <Kd>
0.05 to 0.5 µM

$$$$
>  <chemical.string>
O[C@@H]1CCCC[C@H]1Nc1nc2cc(F)c(Cn3cnc4cccnc43)cc2s1

>  <Kd>
0.5 to 2 µM

$$$$
>  <chemical.string>
O[C@@H]1CCCC[C@H]1Nc1nc2ccc(Cc3cnc4cc(N5CCOCC5)ccn34)cc2s1

>  <Kd>
0.5 to 2 µM

$$$$
>  <chemical.string>
O[C@@H]1CCCC[C@H]1Nc1nc2ccc(Cn3cnc4cc(OC(F)(F)F)ccc43)cc2s1

>  <Kd>
≤ 0.05 µM

$$$$
>  <chemical.string>
N#Cc1cc2ncn(Cc3ccc4nc(N[C@@H]5CCCC[C@H]5O)oc4c3)c2cc1Cl

>  <Kd>
0.5 to 2 µM

$$$$
>  <chemical.string>
O[C@@H]1CCCC[C@H]1Nc1nc2ccc(Cc3cnc4cc(-n5ccnc5)ccn34)cc2s1

>  <Kd>
0.05 to 0.5 µM

$$$$
>  <chemical.string>
O[C@@H]1CCCC[C@H]1Nc1nc2ccc(Cn3cnc4cc(C5=CCOCC5)ccc43)cc2s1

>  <Kd>
≤ 0.05 µM

$$$$
>  <chemical.string>
Cc1cc(C)c2c(c1)ncn2Cc1ccc2nc(N[C@@H]3CCCC[C@H]3O)sc2c1

>  <Kd>
0.5 to 2 µM

$$$$
>  <chemical.string>
Fc1cnc2c(c1)ncn2Cc1ccc2nc(N[C@H]3C=CCCC3)sc2c1

>  <Kd>
0.05 to 0.5 µM

$$$$
>  <chemical.string>
OC[C@@H]1CCC[C@@H](Nc2nc3ccc(Cn4cnc5cc(F)cnc54)cc3s2)C1

>  <Kd>
≤ 0.05 µM

$$$$
>  <chemical.string>
O[C@@H]1CCCC[C@H]1Nc1nc2ccc(Cn3cnc4cc(-n5cncn5)cnc43)cc2s1

>  <Kd>
≤ 0.05 µM

$$$$
>  <chemical.string>
COc1ccc2ncc(Cc3ccc4nc(N[C@@H]5CCCC[C@H]5O)sc4c3)n2n1

>  <Kd>
0.05 to 0.5 µM

$$$$
>  <chemical.string>
O[C@@H]1CCCC[C@H]1Nc1nc2ccc(Cn3cnc4cc(F)cnc43)cc2o1

>  <Kd>
≤ 0.05 µM

$$$$
>  <chemical.string>
C=CCOc1ccn2c(Cc3ccc4nc(N[C@@H]5CCCC[C@H]5O)sc4c3)cnc2c1

>  <Kd>
0.05 to 0.5 µM

$$$$
>  <chemical.string>
O[C@@H]1CCCC[C@H]1Nc1nc2ccc(Cn3cnc4cc(N5CCOCC5)ccc43)cc2s1

>  <Kd>
0.05 to 0.5 µM

$$$$

---

target: kinase panel containing either 386 or 392 distinct kinases; test: Kinase selectivity score S10 from competition binding panel; conditions: 10 μM, panel of 386 or 392 distinct kinases
outcome.measure: Kinase specificity S(10)

>  <molecule>
CC(=O)c1ccn2c(Cc3ccc4nc(N[C@@H]5CCCC[C@H]5O)sc4c3)cnc2c1

>  <endpoint.result>
A (A≤0.01)

$$$$
>  <molecule>
OC[C@@H]1CCCC[C@H]1Nc1nc2ccc(Cn3cnc4cc(Br)cnc43)cc2s1

>  <endpoint.result>
A (A≤0.01)

$$$$
>  <molecule>
OC[C@@H]1CCC[C@@H](Nc2nc3ccc(Cn4cnc5cc(F)cnc54)cc3s2)C1

>  <endpoint.result>
B (0.01<B≤0.02)

$$$$
>  <molecule>
O[C@@H]1CCCC[C@H]1Nc1nc2ccc(Cc3cnc4ccc(Cl)nn34)cc2s1

>  <endpoint.result>
B (0.01<B≤0.02)

$$$$
>  <molecule>
CC(O)c1cnc2c(c1)ncn2Cc1ccc2nc(N[C@@H]3CCCC[C@H]3O)sc2c1 (some centres unmarked)

>  <endpoint.result>
A (A≤0.01)

$$$$
>  <molecule>
O[C@H]1CC[C@H](Nc2nc3ccc(Cn4cnc5cc(F)cnc54)cc3s2)CC1

>  <endpoint.result>
A (A≤0.01)

$$$$
>  <molecule>
O[C@@H]1[C@H](O)CCC[C@H]1Nc1nc2ccc(Cc3cnc4cc(-n5nccn5)ccn34)cc2s1

>  <endpoint.result>
A (A≤0.01)

$$$$
>  <molecule>
CS(=O)(=O)c1ccc2c(c1)ncn2Cc1ccc2nc(N[C@@H]3CCCC[C@H]3O)sc2c1

>  <endpoint.result>
A (A≤0.01)

$$$$
